The values you see were collected from PubChem BioAssay AID1159580.

Experiment: chemical genetic growth profiling, strain panel (AID 1159580);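 note: tested at 20 µM; growth read once vehicle control cultures reached saturation at 30 °C; 1 = growth at the plate median or of vehicle wells; lower values mean less growth of the strain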
Details: S. cerevisiae deletion strains, growth OD, locus YOL006C, strain TOP1, active compounds read low
Among all 5,500 compounds or so, about 2,000 (36%) were called active. Another 18% or so got no clear call; they are omitted. The list shows a part of the results. Where a SMILES comes first, the peptide text is derived from it. Side-chain parts run from the residue outwards. [ ]: non-standard residue; d: D form. The star is where a group is joined. X1 = CCC(C)C(N)C1=NC(C(=O)*)CS1; Orn = NCCC[CH](N)C(=O)O
measured-endpoint: normalized growth

compound=Cc1ccc(OCc2nnc(SCC(=O)c3ccc(F)cc3)n2-c2ccccc2)c2c1CCC2 measured_endpoint="normalized growth" observed="0.963 (inactive)"
compound=O=C(O)c1nccnc1C(=O)O measured_endpoint="normalized growth" observed="1.06 (inactive)"
compound="COc1cc2c(cc1OC)[C@@H]1C(=O)c3ccc4c(c3O[C@@H]1CO2)CC(C(C)C)O4 (stereo partly drawn)" measured_endpoint="normalized growth" observed="0.897 (inactive)"
compound="COP(=O)(OC)OC(Br)C(Cl)(Cl)Br (stereo not drawn)" measured_endpoint="normalized growth" observed="1.04 (inactive)"
compound=O/N=C\c1sccc1Oc1ccccc1 measured_endpoint="normalized growth" observed="0.795 (inactive)"
compound="CCC(C)C(N)C1=NC(C(=O)NC(CC(C)C)C(=O)NC(CCC(=O)O)C(=O)NC(C(=O)NCCCCC2NC(=O)C(CC(N)=O)NC(=O)C(CC(=O)O)NC(=O)C(Cc3cnc[nH]3)NC(=O)C(Cc3ccccc3)NC(=O)C(C(C)CC)NC(=O)C(CCCN)NC2=O)C(C)CC)CS1 (stereo not drawn) (cyclo(DNK([Ile-Glu-Leu-X1])[Orn]IFH); configuration not given here)" measured_endpoint="normalized growth" observed="0.996 (inactive)"
compound="COc1cc2c(cc1OC)-c1c(oc3c4c(ccc3c1=O)OC(C(C)C)C4)CO2 (stereo not drawn)" measured_endpoint="normalized growth" observed="1.17 (inactive)"
compound=O=C1c2ccccc2C(=O)C1c1ccccc1 measured_endpoint="normalized growth" observed="0.964 (inactive)"

----------
Assay: chemical genetic growth profiling, strain panel (AID 1159580)
Settings: S. cerevisiae deletion strains, growth OD, locus YKL085W, strain MDH1 (second series)
Hit rate of the full screen: of about 5,500 compounds, about 2,000 (36%) were called active. Roughly 18% stayed inconclusive and do not appear here. Rule as the data show it: active = normalized growth mostly below about 0.91 (no sharp cut-off); inconclusive = no clear call, values can overlap the other calls; inactive = mostly above about 0.92. The list shows a part of the results.
Outcomes: class 1 = active, class 0 = inactive

compound=O=C(O)c1cc([N+](=O)[O-])ccc1NCCCc1ccccc1 discrete_label="class 1"
compound=COc1ccc2c(=O)ccoc2c1 discrete_label="class 0"
compound="CCCCCCCCCCCCCCCCCCOCC(O)CO (configuration not stated)" discrete_label="class 0"
compound=Cc1cc(=O)n(-c2ccccc2)n1C discrete_label="class 0"
compound=COc1c2ccoc2cc2oc(C)cc(=O)c12 discrete_label="class 0"
compound="COc1cc2c(cc1OC)[C@@]13CCN4CC5=CCOC6CC(=O)N2C1[C@H]6[C@H]5C[C@H]43 (some centres not stated)" discrete_label="class 0"
compound=CC(=O)NO discrete_label="class 0"

----------
Assay: chemical genetic growth profiling, strain panel (AID 1159580);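 note: tested at 20 µM; growth read once vehicle control cultures reached saturation at 30 °C; 1 = growth at the plate median or of vehicle wells; lower values mean less growth of the strain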
Details: S. cerevisiae deletion strains, growth OD, locus YDL134C, strain PPH21, active compounds read low
About 2,000 (36%) of roughly 5,500 compounds were called active. Another 18% or so got no clear call; they are omitted. Some of the results follow.
Listing of recorded normalized growth by entry.
measured-endpoint: normalized growth

compound=CC(C)(C)c1ccc(CSc2nc(N)cc(=O)[nH]2)cc1 observed=1.01
compound=Cc1cc(C(C)(C)C)c(O)c(C)c1CC1=NCCN1 observed=0.997
compound=Cc1cc(C(C)(C)C)cc(C)c1CC1=NCCN1 observed=1.02
compound="CC[C@H]1CN2CCc3cc(OC)c(OC)cc3C2C[C@@H]1CC1NCCc2cc(OC)c(OC)cc21 (stereo not given in full)" observed=1
compound=CC[C@@H](CO)NC(=O)[C@@H]1C=C2c3cccc4[nH]cc(c34)C[C@H]2N(C)C1 observed=0.98

----------
Listing of recorded normalized growth by entry.
Test: chemical genetic growth profiling, strain panel (AID 1159580);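 note: tested at 20 µM; growth read once vehicle control cultures reached saturation at 30 °C; 1 = growth at the plate median or of vehicle wells; lower values mean less growth of the strain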
Conditions: S. cerevisiae deletion strains, growth OD, locus YDL028C, strain MPS1, active compounds read low
Among all 5,500 compounds or so, about 2,000 (36%) were called active. Roughly 18% stayed inconclusive and do not appear here. The list shows a part of the results.
measured-endpoint: normalized growth

molecule=Cn1nc(-c2ccccc2)c(O)c(N=Nc2ccccc2)c1=O observed=0.963
molecule=O=C(Nc1cccnc1)c1cc2c(s1)-c1ccccc1CC2 observed=0.921
molecule=CCOC(=O)c1cnc2c(c(C)nn2C)c1Sc1nnc(SC)s1 observed=0.882
molecule=CC(=O)c1ccccc1C(=O)c1ccc(C(C)(C)C)cc1 observed=0.961
molecule=CC(C)(C)C(=O)c1sc2sc(C(=O)C(C)(C)C)c(N)c2c1N observed=0.992
molecule=O=C(Nc1cc2c(s1)-c1cc(Cl)ccc1SC2)Oc1ccccc1 observed=0.984

----------
Experiment: chemical genetic growth profiling, strain panel (AID 1159580);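 note: tested at 20 µM; growth read once vehicle control cultures reached saturation at 30 °C; 1 = growth at the plate median or of vehicle wells; lower values mean less growth of the strain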
Details: S. cerevisiae deletion strains, growth OD, locus YJL164C, strain tpk1
The campaign covered roughly 5,500 compounds. About 2,000 (36%) were called active. Inconclusive results (about 18%) are left out. Rule as the data show it: active = normalized growth mostly below about 0.91 (no sharp cut-off); inconclusive = no clear call, values can overlap the other calls; inactive = mostly above about 0.92. The list shows a part of the results.
Outcomes: 1 = active, -1 = inactive

molecule=CCOc1ccc(C(=O)c2ccc(O)c(O)c2O)cc1 discrete_label=1
molecule=O=C(O)[C@H](O)[C@@](O)(Cc1ccc(O)cc1)C(=O)O discrete_label=-1
molecule="CC1(C)C(=O)[C@@H]2C[C@@]3(O)C4=CC(=O)O[C@@H](c5ccoc5)[C@]4(C)CCC3[C@@](C)(C2=O)[C@H]1CC(=O)O (some centres not stated)" discrete_label=-1
molecule=CCOc1ccc(C(=O)c2cc(O)c(OC)c(OC)c2O)cc1 discrete_label=-1
molecule=CC(=O)OC[C@H]1O[C@@H](Oc2cc(OC(C)=O)c3c(=O)cc(-c4ccc(OC(C)=O)cc4)oc3c2)[C@H](OC(C)=O)[C@@H](OC(C)=O)[C@@H]1OC(C)=O discrete_label=-1
molecule=CN1CCN(CCCN2c3ccccc3Sc3ccc(C(F)(F)F)cc32)CC1 discrete_label=1
molecule=COc1cc2cc3c4cc(OC)c(OC)cc4cc[n+]3c(C)c2cc1OC discrete_label=-1
molecule="Cc1onc(-c2ccccc2)c1C(=O)NC1C(=O)N2[C@@H]1SC(C)(C)[C@@H]2C(=O)O (some centres not stated)" discrete_label=-1
molecule=CCC1(CC)C(=O)C=CNC1=O discrete_label=-1
molecule=COc1ccc(C(=O)c2ccccc2)c(O)c1O discrete_label=-1
molecule="C1CCC(C(CC2CCCCN2)C2CCCCC2)CC1 (configuration not stated)" discrete_label=-1
molecule="C=C(C)[C@@H]1CC[C@]2(CO)CC[C@]3(C)[C@H](CCC4[C@@]5(C)CC[C@H](O)C(C)(C)C5CC[C@]43C)C12 (some centres not stated)" discrete_label=-1
molecule=CN(C)CCc1c[nH]c2ccc(CS(=O)(=O)N3CCCC3)cc12 discrete_label=-1
molecule=CC1(C)S[C@@H]2[C@H](NC(=O)Cc3ccccc3)C(=O)N2[C@H]1C(=O)O discrete_label=-1
molecule=COc1cnc(NS(=O)(=O)c2ccc(N)cc2)nc1 discrete_label=-1
molecule="COC(=O)C[C@H]1C(C)(C)[C@@H](O)[C@@H]2CC3=C4C=C(OC)O[C@@H](c5ccoc5)[C@]4(C)CCC3[C@@]1(C)C2=O (some centres not stated)" discrete_label=-1
molecule=COc1cc(NS(=O)(=O)c2ccc(N)cc2)ncn1 discrete_label=-1
molecule=C=C(C)[C@H]1Cc2c(ccc3c2O[C@@H]2COc4cc(OC)c(OC)cc4[C@@H]2C3=O)O1 discrete_label=1
molecule="CC1=CC2C(C(C)C)CCC(C)(O)C2CC1 (configuration not stated)" discrete_label=-1
molecule=O=C(OC[C@H]1O[C@H](OC(=O)c2cc(O)c(O)c(OC(=O)c3cc(O)c(O)c(O)c3)c2)[C@H](OC(=O)c2cc(O)c(O)c(OC(=O)c3cc(O)c(O)c(O)c3)c2)[C@@H](OC(=O)c2cc(O)c(O)c(OC(=O)c3cc(O)c(O)c(O)c3)c2)[C@@H]1OC(=O)c1cc(O)c(O)c(OC(=O)c2cc(O)c(O)c(O)c2)c1)c1cc(O)c(O)c(OC(=O)c2cc(O)c(O)c(O)c2)c1 discrete_label=1
molecule=COc1ccc(C2C(=O)c3ccccc3C2=O)cc1 discrete_label=-1
molecule="CC(=O)CC1CCCCN1 (configuration not stated)" discrete_label=-1
molecule="CCc1cccc2c3c([nH]c12)C(CC)(CC(=O)O)OCC3 (configuration not stated)" discrete_label=-1
molecule=Cc1onc(-c2c(Cl)cccc2Cl)c1C(=O)N[C@@H]1C(=O)N2[C@@H]1SC(C)(C)[C@@H]2C(=O)O discrete_label=-1
molecule="CC(=O)O[C@@H]1CC[C@]2(C)C3CC[C@]4(C)C(=O)CCC4C3CC[C@H]2C1 (some centres not stated)" discrete_label=-1
molecule=NC(=O)N1c2ccccc2C=Cc2ccccc21 discrete_label=-1
molecule=CCOc1ccc(C(=O)c2ccc(OC)c(O)c2O)cc1 discrete_label=-1
molecule=COc1cccc(OC)c1C(=O)N[C@@H]1C(=O)N2[C@@H]1SC(C)(C)[C@@H]2C(=O)O discrete_label=-1
molecule=CC(=O)[O][Hg][c]1ccccc1 discrete_label=1
molecule=O=C1c2ccccc2C(=O)C1c1ccccc1 discrete_label=-1
molecule="CCCCCCCCCCCCCCCCCCOCC(O)CO (configuration not stated)" discrete_label=-1
molecule="CC(=O)OCC1=C(C(=O)O)N2C(=O)[C@@H](NC(=O)CCCC(N)C(=O)O)C2SC1 (some centres not stated)" discrete_label=-1
